- TGT: G1 APOL1 (Homo sapiens, UniProt O14791, I384M/S342G)
- Construct: expressed in transfected cells
- Sequence (O14791 28-398 S342G/I384M): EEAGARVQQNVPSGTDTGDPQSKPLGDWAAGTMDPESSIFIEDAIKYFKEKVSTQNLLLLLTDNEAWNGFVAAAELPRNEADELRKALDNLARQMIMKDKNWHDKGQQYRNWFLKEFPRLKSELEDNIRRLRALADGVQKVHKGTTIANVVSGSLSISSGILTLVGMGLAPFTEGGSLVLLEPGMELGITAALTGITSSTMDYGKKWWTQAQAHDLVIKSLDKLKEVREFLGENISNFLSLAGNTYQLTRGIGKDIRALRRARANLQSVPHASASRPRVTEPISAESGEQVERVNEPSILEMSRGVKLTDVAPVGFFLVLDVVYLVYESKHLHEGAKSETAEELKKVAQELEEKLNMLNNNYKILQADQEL
- PROCEDURE DETAILS: Acute APOL1 Thallium Assay with inducible stable clones of HEK 293 cells
- Format: cell-based
- SETUP CONDITIONS: Table 24, Compounds 287 to 465; read-out: Thallium Assay (IC50)
pIC50: −log10 of the molar value.
Quick reference for pIC50 among some compounds

Example cases with answers are listed next.
{"COMPOUND": "CON(C)C(=O)CN[C@H]1C[C@H](c2c(-c3ccc(F)cc3)[nH]c3c(F)cc(F)cc32)C1 [Compound 292]", "TGT": "G1 APOL1 (Homo sapiens, UniProt O14791, I384M/S342G)", "REPORTED MEASUREMENT": "< 6.00"}
{"COMPOUND": "CN1CCN(C(=O)CNCC2CC(c3c(-c4ccc(F)cc4)[nH]c4c(F)cc(F)cc34)C2)CC1 (stereo not shown) [Compound 444]", "TGT": "G1 APOL1 (Homo sapiens, UniProt O14791, I384M/S342G)", "REPORTED MEASUREMENT": "< 6.00"}
{"COMPOUND": "CNC(=O)CNC[C@H]1C[C@H](c2c(-c3ccc(F)cc3)[nH]c3c(F)cc(F)cc32)C1 [Compound 446]", "TGT": "G1 APOL1 (Homo sapiens, UniProt O14791, I384M/S342G)", "REPORTED MEASUREMENT": "> 6.60"}

Pending compound:
Reported pIC50 of O=C(CC1CC(c2c(-c3ccc(F)cc3)[nH]c3c(F)cc(F)cc23)C1)NC1(CO)CC1 (stereo not shown) [Compound 453] : 6.00 to 6.60
